Tested on: Rattus norvegicus
test.name: Biodistribution of compound in rat muscle after 5 min of administration
Assay type: ADME, organism-based, Muscle tissue
condition.set: in vivo
measured.metric: Dose/g
Please answer using the number first and the unit second.

## Task API: value(readout= Dose/g, system= Rattus norvegicus, query= BIS(TOLUENE)TECHNETIUM )
## Result 0.069%

----------
Quick list: Dose/g per entry.
Test system: Rattus norvegicus
test.name: Biodistribution of compound in rat kidney after 5 min of administration.
Type: ADME, organism-based
condition.set: in vivo
Form entry: value (%) — number only.

Worked cases, answers included:
BIS(DODECAHYDROTRIPHENYLENE) TECHNETIUM	12
BIS(TRINDAN) TECHNETIUM	9.3
BIS(HEXAMETHYLBENZENE)TECHNETIUM	6.2

## Task Any idea what Dose/g was measured for BIS(HEXAETHYLBENZENE) TECHNETIUM ?
## Result 10

## Task Any idea what Dose/g was measured for BIS(TETRAHYDROACENAPHTHENE) TECHNETIUM ?
## Result 6

## Task Any idea what Dose/g was measured for BIS(PENTAMETHYLBENZENE) TECHNETIUM ?
## Result 5.5

## Task Any idea what Dose/g was measured for BIS(INDAN)TECHNETIUM ?
## Result 11

Origin of values: ChEMBL document CHEMBL1125797
